Tested on: Homo sapiens
experiment.summary: AUC (0 to infinity) in human at 500 mg, po QD measured on day 10 by […] analysis
Type: ADME, organism-based, Plasma
Design: dose 500 mg, route oral, time infinity
assay.context: in vivo
test.readout: AUC (ng·h/mL)
Number only, in ng·h/mL; omit the unit.

Find the recorded AUC belonging to C[C@H]1COc2c(N3CCN(C)CC3)c(F)cc3c(=O)c(C(=O)O)cn1c23.C[C@H]1COc2c(N3CCN(C)CC3)c(F)cc3c(=O)c(C(=O)O)cn1c23.O and report it.
47500

---

experiment.summary: Cmax in Rhesus monkey at 15 mg/kg by […] analysis
Format: ADME, organism-based, Macaca mulatta
Design: dose 15 mg/kg
assay.context: in vivo
test.readout: Cmax

Find the recorded Cmax belonging to C[C@H]1COc2c(N3CCN(C)CC3)c(F)cc3c(=O)c(C(=O)O)cn1c23.C[C@H]1COc2c(N3CCN(C)CC3)c(F)cc3c(=O)c(C(=O)O)cn1c23.O and report it.
5100 ng/mL

---

Test system: Homo sapiens
experiment.summary: AUC (0 to infinity) in human at 500 mg, po by […] analysis
Assay type: ADME, organism-based, Plasma
Set-up: dose 500 mg, time infinity, route oral
assay.context: in vivo
test.readout: AUC
A complete answer gives the number and then names the unit.

Find the recorded AUC belonging to C[C@H]1COc2c(N3CCN(C)CC3)c(F)cc3c(=O)c(C(=O)O)cn1c23.C[C@H]1COc2c(N3CCN(C)CC3)c(F)cc3c(=O)c(C(=O)O)cn1c23.O and report it.
56.3 µg·h/mL

---

experiment.summary: Tmax in human at 500 mg, po by […] analysis
Type: ADME, organism-based
assay.context: in vivo
test.readout: Tmax
A complete answer gives the number and then names the unit.

Find the recorded Tmax belonging to C[C@H]1COc2c(N3CCN(C)CC3)c(F)cc3c(=O)c(C(=O)O)cn1c23.C[C@H]1COc2c(N3CCN(C)CC3)c(F)cc3c(=O)c(C(=O)O)cn1c23.O [LEVOFLOXACIN] and report it.
1.5 h

---

Tested on: Rhesus monkey
experiment.summary: AUC (0 to infinity) in Rhesus monkey at 15 mg/kg by […] analysis
Type: ADME, organism-based, Macaca mulatta, Plasma
Set-up: time infinity, dose 15 mg/kg
assay.context: in vivo
test.readout: AUC (ng·h/mL)
Number only, in ng·h/mL; omit the unit.

Find the recorded AUC belonging to C[C@H]1COc2c(N3CCN(C)CC3)c(F)cc3c(=O)c(C(=O)O)cn1c23.C[C@H]1COc2c(N3CCN(C)CC3)c(F)cc3c(=O)c(C(=O)O)cn1c23.O and report it.
21300

---

experiment.summary: Half life in human at 500 mg, po QD measured on day 10 by LS/MS/MS analysis
Type: ADME, organism-based
assay.context: in vivo
test.readout: half-life (h)
Number only, in h; omit the unit.

Find the recorded half-life belonging to C[C@H]1COc2c(N3CCN(C)CC3)c(F)cc3c(=O)c(C(=O)O)cn1c23.C[C@H]1COc2c(N3CCN(C)CC3)c(F)cc3c(=O)c(C(=O)O)cn1c23.O and report it.
7.6
